Assay: Half life in rat liver microsomes
Assay type: ADME, Microsome
assay_readout: half-life (min)

(A) CO[C@H]1C[C@@H](C(=O)N2CC[C@@]3(S(=O)(=O)c4ccc(F)cc4)c4ccc(C(F)(C(F)(F)F)C(F)(F)F)cc4CC[C@@H]23)N(C)C1=O
(B) CN1C(=O)[C@@H](O)C[C@H]1C(=O)N1CC[C@@]2(S(=O)(=O)c3ccc(F)cc3)c3ccc(C(F)(C(F)(F)F)C(F)(F)F)cc3CC[C@@H]12
Prompt: Which of the two gives a bigger number for half-life: A or B ? Give the label under which the chosen entry appears.
Response: A
(A: 43 min, B: 10 min)

* * *

Experiment: Oral bioavailability in BALB/c mouse at 4 mg/kg
Type: ADME, organism-based
Conditions: in vivo
assay_readout: bioavailability (%)
# output: bare number, implied unit %

Prompt: Which value of bioavailability has been reported for CC(C)(O)CN1C(=O)[C@H](F)C[C@H]1C(=O)N1CC[C@@]2(S(=O)(=O)c3ccc(F)cc3)c3ccc(C(F)(C(F)(F)F)C(F)(F)F)cc3CC[C@@H]12 in the records?
Response: 94

* * *

Target: UniProt P51449
Sequence (P51449 whole entry): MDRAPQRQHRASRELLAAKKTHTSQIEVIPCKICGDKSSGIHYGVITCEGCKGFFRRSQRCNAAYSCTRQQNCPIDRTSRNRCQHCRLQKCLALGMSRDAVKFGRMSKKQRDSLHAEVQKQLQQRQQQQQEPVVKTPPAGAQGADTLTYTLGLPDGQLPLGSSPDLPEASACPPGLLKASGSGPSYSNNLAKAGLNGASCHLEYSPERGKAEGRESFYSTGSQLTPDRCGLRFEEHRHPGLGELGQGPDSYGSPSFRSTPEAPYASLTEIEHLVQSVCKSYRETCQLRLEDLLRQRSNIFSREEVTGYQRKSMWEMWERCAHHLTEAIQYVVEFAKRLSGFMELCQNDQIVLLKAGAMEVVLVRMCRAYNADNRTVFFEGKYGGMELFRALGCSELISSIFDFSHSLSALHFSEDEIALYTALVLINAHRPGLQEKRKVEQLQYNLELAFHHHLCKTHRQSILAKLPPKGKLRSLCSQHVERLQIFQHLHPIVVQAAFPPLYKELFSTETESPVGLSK
Test: Inverse agonist activity at Gal4-fused RORgammat LBD (unknown origin) by reporter gene assay
pEC50: −log10 of the molar value.
assay_readout: pEC50

(P) N#CCCN1C(=O)[C@H](F)C[C@H]1C(=O)N1CC[C@@]2(S(=O)(=O)c3ccc(F)cc3)c3ccc(C(F)(C(F)(F)F)C(F)(F)F)cc3CC[C@@H]12
(Q) N#Cc1ccc(CN2C(=O)[C@H](F)C[C@H]2C(=O)N2CC[C@@]3(S(=O)(=O)c4ccc(F)cc4)c4ccc(C(F)(C(F)(F)F)C(F)(F)F)cc4CC[C@@H]23)cc1
(R) O=C(O)CN1C(=O)[C@H](F)C[C@H]1C(=O)N1CC[C@@]2(S(=O)(=O)c3ccc(F)cc3)c3ccc(C(F)(C(F)(F)F)C(F)(F)F)cc3CC[C@@H]12
(S) O=C1[C@H](F)C[C@@H](C(=O)N2CC[C@@]3(S(=O)(=O)c4ccc(F)cc4)c4ccc(C(F)(C(F)(F)F)C(F)(F)F)cc4CC[C@@H]23)N1Cc1ccc(F)cc1
Prompt: # descending pEC50 order for the listed compounds Write the labels in rank order as requested.
Response: S, P, Q, R
(S: 8.15, P: 7.74, Q: 7.52, R: 5.82)

* * *

Target: Cytochrome P450 2C9 (Homo sapiens)
Sequence (P11712 whole entry): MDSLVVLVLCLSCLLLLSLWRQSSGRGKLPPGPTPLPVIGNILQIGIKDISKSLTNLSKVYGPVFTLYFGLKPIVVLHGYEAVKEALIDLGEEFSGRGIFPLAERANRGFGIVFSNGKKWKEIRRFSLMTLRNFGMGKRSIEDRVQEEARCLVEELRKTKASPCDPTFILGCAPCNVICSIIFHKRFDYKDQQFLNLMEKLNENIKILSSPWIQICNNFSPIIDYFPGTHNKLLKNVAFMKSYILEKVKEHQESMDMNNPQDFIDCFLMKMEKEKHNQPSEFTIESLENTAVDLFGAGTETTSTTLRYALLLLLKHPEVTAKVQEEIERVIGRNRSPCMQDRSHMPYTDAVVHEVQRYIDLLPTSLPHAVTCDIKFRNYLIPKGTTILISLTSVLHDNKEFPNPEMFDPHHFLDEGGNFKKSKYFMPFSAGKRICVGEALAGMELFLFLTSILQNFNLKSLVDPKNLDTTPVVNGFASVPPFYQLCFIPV
assay_readout: pIC50
The scale used: pIC50 is minus the common logarithm of the concentration in molar units.

Prompt: Which value of pIC50 has been reported for CC(C)(O)CN1C(=O)[C@H](F)C[C@H]1C(=O)N1CC[C@@]2(S(=O)(=O)c3ccc(F)cc3)c3ccc(C(F)(C(F)(F)F)C(F)(F)F)cc3CC[C@@H]12 in the records?
Response: 5.31

* * *

Test: Cmax in IL-23 induced acanthosis C57BL/6 mouse model of psoriasis measured as (3R,5S)-3-Fluoro-5-((3aR,9bR)-9b-((4-fluorophenyl)sulfonyl)-7-(perfluoropropan-2-yl)-2,3,3a,4,5,9b-hexahydro-1H-benzo[e]indole-3-carbonyl)-1-(2-hydroxy-2-methylpropyl)pyrrolidin-2-one at 5 mg/kg, po qd administered for 9 days 2 hrs before IL-23 injection
Format: ADME, organism-based
Design: route oral, dose 5 mg/kg, time 9 day
Details: in vivo, 216 h
assay_readout: Cmax (nM)
# output: bare number, implied unit nM

Prompt: Which value of Cmax has been reported for CC(C)(CN1C(=O)[C@H](F)C[C@H]1C(=O)N1CC[C@@]2(S(=O)(=O)c3ccc(F)cc3)c3ccc(C(F)(C(F)(F)F)C(F)(F)F)cc3CC[C@@H]12)OP(=O)(O)O in the records?
Response: 650

* * *

Experiment: Half life in mouse liver microsomes
Format: ADME, Microsome
assay_readout: half-life (h)

In the examples that follow, each entry is paired with its recorded half-life.
1) [2H]C([2H])([2H])N1C(=O)C(F)(F)C[C@H]1C(=O)N1CC[C@@]2(S(=O)(=O)c3ccc(F)cc3)c3ccc(C(F)(C(F)(F)F)C(F)(F)F)cc3CC[C@@H]12
1.47
2) [2H]C([2H])([2H])N1C(=O)[C@@H](F)C[C@H]1C(=O)N1CC[C@@]2(S(=O)(=O)c3ccc(F)cc3)c3ccc(C(F)(C(F)(F)F)C(F)(F)F)cc3CC[C@@H]12
1.42
3) CO[C@H]1C[C@@H](C(=O)N2CC[C@@]3(S(=O)(=O)c4ccc(F)cc4)c4ccc(C(F)(C(F)(F)F)C(F)(F)F)cc4CC[C@@H]23)N(C)C1=O
1.57
4) CN1C(=O)[C@@H](O)C[C@H]1C(=O)N1CC[C@@]2(S(=O)(=O)c3ccc(F)cc3)c3ccc(C(F)(C(F)(F)F)C(F)(F)F)cc3CC[C@@H]12
0.417
5) CC(C)N1C(=O)[C@H](F)C[C@H]1C(=O)N1CC[C@@]2(S(=O)(=O)c3ccc(F)cc3)c3ccc(C(F)(C(F)(F)F)C(F)(F)F)cc3CC[C@@H]12
0.867

(a) O=C1[C@H](F)C[C@@H](C(=O)N2CC[C@@]3(S(=O)(=O)c4ccc(F)cc4)c4ccc(C(F)(C(F)(F)F)C(F)(F)F)cc4CC[C@@H]23)N1CCO
(b) CN1C(=O)CC[C@H]1C(=O)N1CC[C@@]2(S(=O)(=O)c3ccc(F)cc3)c3ccc(C(F)(C(F)(F)F)C(F)(F)F)cc3CC[C@@H]12
(c) O=C1[C@H](F)C[C@@H](C(=O)N2CC[C@@]3(S(=O)(=O)c4ccc(F)cc4)c4ccc(C(F)(C(F)(F)F)C(F)(F)F)cc4CC[C@@H]23)N1Cc1ccc(F)cc1
Prompt: Arrange the 3 compounds from largest to smallest half-life. Write the labels in rank order as requested.
Response: b, a, c
(b: 1.93 h, a: 1 h, c: 0.483 h)

* * *

Target: Oxysterols receptor LXR-beta (Homo sapiens, UniProt P55055)
Sequence (P55055 whole entry): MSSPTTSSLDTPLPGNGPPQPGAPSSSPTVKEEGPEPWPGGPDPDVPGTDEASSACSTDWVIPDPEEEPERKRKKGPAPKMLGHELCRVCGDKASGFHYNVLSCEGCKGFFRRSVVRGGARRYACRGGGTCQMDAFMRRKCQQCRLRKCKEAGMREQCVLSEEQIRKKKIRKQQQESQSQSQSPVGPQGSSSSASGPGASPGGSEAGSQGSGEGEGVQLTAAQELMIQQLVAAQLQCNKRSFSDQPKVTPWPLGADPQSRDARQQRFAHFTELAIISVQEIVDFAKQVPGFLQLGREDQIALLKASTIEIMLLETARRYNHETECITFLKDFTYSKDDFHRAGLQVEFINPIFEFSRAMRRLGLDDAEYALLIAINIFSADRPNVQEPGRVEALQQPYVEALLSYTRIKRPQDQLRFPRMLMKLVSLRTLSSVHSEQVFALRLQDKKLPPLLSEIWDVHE
Assay: Inverse agonist activity at LXRbeta (unknown origin)
assay_readout: EC50

Prompt: Which value of EC50 has been reported for CC(C)(O)CN1C(=O)[C@H](F)C[C@H]1C(=O)N1CC[C@@]2(S(=O)(=O)c3ccc(F)cc3)c3ccc(C(F)(C(F)(F)F)C(F)(F)F)cc3CC[C@@H]12 in the records?
Response: > 7.5 µM

* * *

Test: Protein binding in human
Format: ADME
assay_readout: fraction unbound
Simply state the number, no unit and no words.

Prompt: Which value of fraction unbound has been reported for CC(C)(O)CN1C(=O)[C@H](F)C[C@H]1C(=O)N1CC[C@@]2(S(=O)(=O)c3ccc(F)cc3)c3ccc(C(F)(C(F)(F)F)C(F)(F)F)cc3CC[C@@H]12 in the records?
Response: 0.025

* * *

Assay: Half life in rat liver microsomes
Type: ADME, Microsome
assay_readout: half-life (min)

1) CN1C(=O)[C@H](F)C[C@H]1C(=O)N1CC[C@@]2(S(=O)(=O)c3ccc(F)cc3)c3ccc(C(F)(C(F)(F)F)C(F)(F)F)cc3CC[C@@H]12
55
2) [2H]C([2H])([2H])N1C(=O)C(F)(F)C[C@H]1C(=O)N1CC[C@@]2(S(=O)(=O)c3ccc(F)cc3)c3ccc(C(F)(C(F)(F)F)C(F)(F)F)cc3CC[C@@H]12
58
3) N#Cc1ccc(CN2C(=O)[C@H](F)C[C@H]2C(=O)N2CC[C@@]3(S(=O)(=O)c4ccc(F)cc4)c4ccc(C(F)(C(F)(F)F)C(F)(F)F)cc4CC[C@@H]23)cc1
61
4) O=C1[C@H](F)C[C@@H](C(=O)N2CC[C@@]3(S(=O)(=O)c4ccc(F)cc4)c4ccc(C(F)(C(F)(F)F)C(F)(F)F)cc4CC[C@@H]23)N1CCO
36
5) N#CCCN1C(=O)[C@H](F)C[C@H]1C(=O)N1CC[C@@]2(S(=O)(=O)c3ccc(F)cc3)c3ccc(C(F)(C(F)(F)F)C(F)(F)F)cc3CC[C@@H]12
45
